- Target Or Test System: UniProt P08912
- Sequence (P08912 whole entry): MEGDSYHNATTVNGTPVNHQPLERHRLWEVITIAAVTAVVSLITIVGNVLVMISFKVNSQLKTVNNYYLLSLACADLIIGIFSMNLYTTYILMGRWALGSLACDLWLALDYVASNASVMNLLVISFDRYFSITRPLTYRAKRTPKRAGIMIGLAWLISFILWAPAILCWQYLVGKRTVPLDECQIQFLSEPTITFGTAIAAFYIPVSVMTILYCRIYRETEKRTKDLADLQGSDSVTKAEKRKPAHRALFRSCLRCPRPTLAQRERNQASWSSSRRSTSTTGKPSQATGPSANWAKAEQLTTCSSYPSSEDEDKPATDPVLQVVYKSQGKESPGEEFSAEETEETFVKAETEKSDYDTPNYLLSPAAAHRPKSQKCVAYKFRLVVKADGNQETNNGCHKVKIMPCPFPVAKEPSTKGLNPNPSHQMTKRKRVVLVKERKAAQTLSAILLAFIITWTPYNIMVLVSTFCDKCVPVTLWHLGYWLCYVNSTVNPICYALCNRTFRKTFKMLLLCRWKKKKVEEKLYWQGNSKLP
- Procedure Text: Allosteric agonist activity at human muscarinic acetylcholine receptor M5
Metric: pEC50
Answers are plain numbers, as −log10 of the molar value.

The recorded pEC50 for entry O=C(N[C@H]1C[C@H](O)C1)c1ccc(C#Cc2cccc(F)c2)cn1 equals 6.40
